- TARGET_DESC: Catechol O-methyltransferase (Homo sapiens)
- EXPERIMENT_DESCRIPTION: Confirmatory Screen for Target Class Profiling of Small Molecule Inhibitors of Methyltransferases (AID 1745852)
- APPLIED_CONDITIONS: MTase-Glo luminescence, SAH detection, recombinant enzyme; measured here: COMT max response; stronger effect = lower value
Collected activity values appear next to each entry.
The response must be a number in % with no trailing unit.

Look over these answered cases.
INSERT INTO results (compound, target_desc, recorded_endpoint, reported_result) VALUES
  ('Cc1cc(O)c(-c2ccc([C@@H](C)CN(C)C)cc2)c2c1[nH]c(=O)c1sccc12', 'Catechol O-methyltransferase (Homo sapiens)', 'activity', -22.7),
  ('Oc1ccc(CNc2ccccc2F)c2cccnc12', 'Catechol O-methyltransferase (Homo sapiens)', 'activity', -81.9),
  ('CC1CCC2(CO)C(C(=O)O)=CCCC2C1(C)CCc1ccoc1 (stereo unspecified)', 'Catechol O-methyltransferase (Homo sapiens)', 'activity', -92.5);

Query block: Please report the measured activity for COc1cc(C(=O)OC[C@H]2O[C@@H](Oc3ccccc3/C=C/C(=O)O)[C@H](O)[C@@H](O)[C@@H]2O)cc(OC)c1OC
Result block: -77.7

Query block: Fill in reported activity for this entry: CCCNc1ccc2ncc(-c3ccc4[nH]ncc4c3)n2n1
Result block: -53.8

Query block: Determine its reported activity: O=C(O)/C=C/c1ccc(-c2ccc(O)c(C34CC5CC(CC(C5)C3)C4)c2)cc1
Result block: 0.235

====

- System: NIH3T3
- EXPERIMENT_DESCRIPTION: Cytotoxic Profiling of Annotated Libraries Using Quantitative High-Throughput Screening (AID 1296008); further: on the % scale 0 is the no-effect control and ±100 the full control effect
- APPLIED_CONDITIONS: Five cell lines viability, CellTiter-Glo ATP luminescence, 48-72 h; stronger effect = lower value
Inconclusive results are not listed.
// reported max response for each item listed
# unit: % | format: bare number

INSERT INTO assay_data (compound, recorded_endpoint, readout_units, reported_result) VALUES
  ('C[C@@H]1O[C@@H](O[C@H]2[C@H](O)[C@@H](O[C@@H]3O[C@H](CO)[C@@H](O)[C@H](O[C@@H]4O[C@H](CO)[C@@H](O)[C@H](O)[C@H]4O)[C@H]3O)[C@H](O[C@H]3CC[C@@]4(C)C(=CC[C@@H]5C4CC[C@@]4(C)C5C[C@@H]5OC6(CC[C@@](C)(CO[C@@H]7O[C@H](CO)[C@@H](O)[C@H](O)[C@H]7O)O6)[C@@H](C)[C@@H]54)C3)O[C@@H]2CO)[C@H](O)[C@H](O)[C@H]1OC1OC(CO)C(O)C(O)C1O (stereo not given in full)', 'max response', '%', -4.4),
  ('CC(=O)O[C@H]1CC[C@H](C)[C@@]2(C)[C@H](OC(C)=O)c3c(C)coc3C(=O)[C@H]12', 'max response', '%', -5.72),
  ('CC1=CCC2C(C)(C)CCC[C@]2(C)[C@@]12CC[C@](C)(CC(=O)O)O2 (stereo not given in full)', 'max response', '%', -1.28),
  ('C[C@@H]1O[C@@H](O[C@H]2[C@H](O)[C@@H](O)[C@H](OC3CCC4(C)C5CCC(C)(C(CO)OC6OC(CO)C(O)C(O)C6O)CC5=CCC4C3(C)C)O[C@@H]2CO)[C@H](O)[C@H](O)[C@H]1O (stereo not given in full)', 'max response', '%', 3.8);

Query block: Name the recorded max response of COc1cc(/C=C/CO)cc(OC)c1O[C@@H]1O[C@H](CO[C@@H]2O[C@H](CO)[C@@H](O)[C@H](O)[C@H]2O)[C@@H](O)[C@H](O)[C@H]1O , assay system NIH3T3.
Result block: -3.2

Cited source for all entries: PubChem BioAssay (NCATS)
